target: Beta-secretase 1 (Homo sapiens, UniProt P56817)
Sequence (P56817 whole entry): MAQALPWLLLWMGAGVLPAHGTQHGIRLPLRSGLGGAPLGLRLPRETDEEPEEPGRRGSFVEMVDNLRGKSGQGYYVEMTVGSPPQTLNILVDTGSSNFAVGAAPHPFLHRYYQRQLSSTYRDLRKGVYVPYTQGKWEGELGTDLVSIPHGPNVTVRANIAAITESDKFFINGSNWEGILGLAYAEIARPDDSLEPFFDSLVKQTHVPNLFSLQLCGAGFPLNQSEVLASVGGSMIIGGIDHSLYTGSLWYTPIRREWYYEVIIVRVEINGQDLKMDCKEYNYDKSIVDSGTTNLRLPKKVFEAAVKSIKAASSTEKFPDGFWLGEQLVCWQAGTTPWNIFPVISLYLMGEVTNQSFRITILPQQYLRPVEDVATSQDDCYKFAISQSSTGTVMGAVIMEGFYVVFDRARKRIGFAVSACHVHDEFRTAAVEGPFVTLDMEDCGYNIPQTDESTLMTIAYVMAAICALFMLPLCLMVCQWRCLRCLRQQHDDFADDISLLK
assay-setup: H4, at 10 µM
Description: Inhibition of BACE1 expressed in human H4 cells assessed as reduction in sAPPbeta level at 10 uM incubated for 16 hrs in presence of 25 uM metalloprotease inhibitor batimastat by HPLAP-APP reporter assay
Calls of active or inactive are those of the source. The calls are words filed in the database; no cut-off is given here. Starred links: 1 amine or outer side, 2 acyl side, 3 side chain; linkers in the order of their positions; H or OH if unused. Non-standard residues stand in square brackets, D forms with d. Residues, ends and D or L forms follow the SMILES beside them. *: point of attachment. Ahppa(3S,4S) = O=C(C[C@H](O)[C@H](Cc1ccccc1)N[*:1])[*:2]; dNMeF = CN[C@H](Cc1ccccc1)C(=O)O; NMeQ = CN[C@@H](CCC(N)=O)C(=O)O; Cbz = O=C(OCc1ccccc1)*; Lac = C[C@H](O)C(=O)O

{"compound": "CC(C)C[C@@H](C=O)NC(=O)[C@H](CC(C)C)NC(=O)[C@@H](NC(=O)OCc1ccccc1)C(C)C (Cbz-Val-Leu-Leu-aldehyde)", "inhibition": "Active"}
{"compound": "COC(=O)[C@@H]1CCCN1C(=O)[C@@H](Cc1ccccc1)N(C)C(=O)[C@H](C)NC(=O)[C@H](CC(C)C)NC(=O)C[C@H](O)[C@H](Cc1ccccc1)NC(=O)c1cc(NS(C)(=O)=O)cc(C(=O)N[C@H](C)c2ccccc2)c1", "inhibition": "Active"}
{"compound": "COC(=O)[C@@H]1CCCN1C(=O)[C@@H](Cc1ccccc1)N(C)C(=O)[C@H](C)NC(=O)[C@H](CC(C)C)NC(=O)C[C@H](O)[C@H](Cc1ccccc1)NC(=O)c1cc(C(=O)N[C@H](C)c2ccccc2)cc(N(C)S(C)(=O)=O)c1", "inhibition": "Active"}
{"compound": "CC(C)C[C@H](NC(=O)C[C@H](O)[C@H](Cc1ccccc1)NC(=O)[C@H](CCC(N)=O)N(C)C(=O)[C@@H](NC(=O)[C@H](C)O)C(C)C)C(=O)N[C@@H](C)C(=O)N(C)[C@H](Cc1ccccc1)C(=O)NCc1ccccc1", "inhibition": "Active"}
{"compound": "CC(C)C[C@H](NC(=O)C[C@H](O)[C@H](Cc1ccccc1)NC(=O)[C@H](CCC(N)=O)N(C)C(=O)[C@@H](NC(=O)[C@H](C)O)C(C)C)C(=O)N[C@@H](C)C(=O)N(C)[C@H](Cc1ccccc1)C(=O)O (H-[Lac]V[NMeQ][Ahppa(3S,4S)]LA[dNMeF]-OH)", "inhibition": "Active"}
{"compound": "CC(C)C[C@H](NC(=O)C[C@H](O)[C@H](Cc1ccccc1)NC(=O)[C@H](CCC(N)=O)N(C)C(=O)[C@@H](NC(=O)[C@H](C)O)C(C)C)C(=O)N[C@@H](C)C(=O)N(C)[C@H](Cc1ccccc1)C(=O)NC(C)C", "inhibition": "Active"}

* * *

target: Gamma-secretase (Homo sapiens) (UniProt Q96BI3+Q9NZ42+Q8WW43+P49768+Q92542+P49810)
test-details: Inhibition of gamma secretase expressed in human H4 cells expressing BRI-C99 fusion protein assessed as C99 fragment accumulation fragment at 10 uM incubated for 16 hrs in by immunoblot
Assay type: cell-based
Calls of active or inactive are those of the source. The calls are words filed in the database; no cut-off is given here. Starred links: 1 amine or outer side, 2 acyl side, 3 side chain; linkers in the order of their positions; H or OH if unused. Non-standard residues stand in square brackets, D forms with d. Residues, ends and D or L forms follow the SMILES beside them. *: point of attachment. Ahppa(3S,4S) = O=C(C[C@H](O)[C@H](Cc1ccccc1)N[*:1])[*:2]; dNMeF = CN[C@H](Cc1ccccc1)C(=O)O; NMeQ = CN[C@@H](CCC(N)=O)C(=O)O; Cbz = O=C(OCc1ccccc1)*
quantity-name: inhibition

{"compound": "COC(=O)[C@@H]1CCCN1C(=O)[C@@H](Cc1ccccc1)N(C)C(=O)[C@H](C)NC(=O)[C@H](CC(C)C)NC(=O)C[C@H](O)[C@H](Cc1ccccc1)NC(=O)[C@H](CCC(N)=O)N(C)C(=O)[C@@H](NC(=O)[C@H](C)O)C(C)C", "value-measured": "inactive"}
{"compound": "COC(=O)[C@@H]1CCCN1C(=O)[C@@H](Cc1ccccc1)N(C)C(=O)[C@H](C)NC(=O)[C@H](CC(C)C)NC(=O)C[C@H](O)[C@H](Cc1ccccc1)NC(=O)[C@H](CCC(N)=O)N(C)C(=O)[C@@H](N)C(C)C", "value-measured": "inactive"}
{"compound": "COC(=O)[C@@H]1CCCN1C(=O)[C@@H](Cc1ccccc1)N(C)C(=O)[C@H](C)NC(=O)[C@H](CC(C)C)NC(=O)C[C@H](O)[C@H](Cc1ccccc1)NC(=O)[C@H](CCC(N)=O)N(C)C(=O)[C@@H](NC(=O)OCc1ccccc1)C(C)C (Cbz-V[NMeQ][Ahppa(3S,4S)]LA[dNMeF]P-OMe)", "value-measured": "inactive"}

Reference source for all entries: ChEMBL document CHEMBL2176894
